Sourced from patent US10179767B2

# target or test system: hNav1.7 (Homo sapiens, UniProt Q15858)
# Sequence (Q15858 whole entry): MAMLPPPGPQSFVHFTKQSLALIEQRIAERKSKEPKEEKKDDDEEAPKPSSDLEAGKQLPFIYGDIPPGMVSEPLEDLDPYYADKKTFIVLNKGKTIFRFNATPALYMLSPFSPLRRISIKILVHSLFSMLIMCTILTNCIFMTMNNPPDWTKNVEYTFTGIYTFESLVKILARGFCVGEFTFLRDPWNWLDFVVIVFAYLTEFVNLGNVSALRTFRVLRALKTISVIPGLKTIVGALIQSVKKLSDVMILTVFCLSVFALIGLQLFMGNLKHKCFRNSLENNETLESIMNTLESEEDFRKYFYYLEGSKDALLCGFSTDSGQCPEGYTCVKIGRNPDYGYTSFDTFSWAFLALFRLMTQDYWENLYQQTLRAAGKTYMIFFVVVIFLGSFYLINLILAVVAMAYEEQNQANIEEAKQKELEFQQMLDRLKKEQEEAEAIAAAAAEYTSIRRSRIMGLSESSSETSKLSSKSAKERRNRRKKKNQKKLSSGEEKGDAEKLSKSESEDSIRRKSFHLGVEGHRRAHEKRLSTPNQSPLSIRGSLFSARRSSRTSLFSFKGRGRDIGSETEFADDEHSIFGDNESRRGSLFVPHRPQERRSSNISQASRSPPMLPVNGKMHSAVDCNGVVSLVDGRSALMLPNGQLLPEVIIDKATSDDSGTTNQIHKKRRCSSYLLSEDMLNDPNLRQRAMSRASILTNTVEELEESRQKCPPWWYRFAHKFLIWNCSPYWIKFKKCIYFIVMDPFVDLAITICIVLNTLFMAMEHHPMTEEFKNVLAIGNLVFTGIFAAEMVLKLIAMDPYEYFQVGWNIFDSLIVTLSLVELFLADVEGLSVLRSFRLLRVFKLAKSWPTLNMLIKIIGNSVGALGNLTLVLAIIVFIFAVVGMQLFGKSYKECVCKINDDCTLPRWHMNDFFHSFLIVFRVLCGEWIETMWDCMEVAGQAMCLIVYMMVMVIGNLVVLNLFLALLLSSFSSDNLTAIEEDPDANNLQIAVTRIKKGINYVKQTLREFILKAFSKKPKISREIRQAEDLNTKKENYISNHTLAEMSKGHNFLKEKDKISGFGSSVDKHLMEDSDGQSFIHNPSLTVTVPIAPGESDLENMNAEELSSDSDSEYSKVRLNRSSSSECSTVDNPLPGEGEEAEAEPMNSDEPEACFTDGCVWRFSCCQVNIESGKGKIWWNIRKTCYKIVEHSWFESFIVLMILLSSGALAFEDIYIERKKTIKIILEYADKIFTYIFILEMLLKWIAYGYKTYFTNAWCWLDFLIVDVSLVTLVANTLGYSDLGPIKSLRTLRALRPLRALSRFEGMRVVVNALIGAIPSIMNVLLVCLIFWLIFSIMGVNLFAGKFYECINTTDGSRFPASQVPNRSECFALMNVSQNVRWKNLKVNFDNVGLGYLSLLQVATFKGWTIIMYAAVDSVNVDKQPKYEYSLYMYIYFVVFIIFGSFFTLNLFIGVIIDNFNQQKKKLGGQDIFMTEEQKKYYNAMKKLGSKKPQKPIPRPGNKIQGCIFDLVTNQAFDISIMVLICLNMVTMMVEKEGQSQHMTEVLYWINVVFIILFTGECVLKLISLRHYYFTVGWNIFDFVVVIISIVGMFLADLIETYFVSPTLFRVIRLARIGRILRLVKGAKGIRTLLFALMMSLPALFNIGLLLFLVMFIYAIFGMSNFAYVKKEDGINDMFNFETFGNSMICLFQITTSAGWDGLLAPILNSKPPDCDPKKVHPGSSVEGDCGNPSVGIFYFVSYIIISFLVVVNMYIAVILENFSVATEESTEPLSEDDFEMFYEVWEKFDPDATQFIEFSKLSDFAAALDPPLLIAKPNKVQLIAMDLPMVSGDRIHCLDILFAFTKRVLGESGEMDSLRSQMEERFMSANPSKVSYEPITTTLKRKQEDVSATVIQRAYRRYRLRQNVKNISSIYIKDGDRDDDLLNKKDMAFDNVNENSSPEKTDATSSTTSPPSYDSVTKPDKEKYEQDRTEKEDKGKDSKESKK
# Sequence (Q07699 19-218 partner): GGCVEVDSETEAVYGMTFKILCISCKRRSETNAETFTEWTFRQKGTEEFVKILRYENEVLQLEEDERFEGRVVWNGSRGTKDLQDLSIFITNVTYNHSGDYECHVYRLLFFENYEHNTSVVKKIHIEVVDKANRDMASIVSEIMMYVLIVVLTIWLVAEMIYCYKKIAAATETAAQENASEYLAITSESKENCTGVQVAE
# assay overview: Tritiated sulfonamide binding to membranes from cells expressing hNav1.7 and the β1 subunit (Nav 1.7 ligand binding assay, competitive)
# condition summary: competition with 100 pM [3H]compound, room temperature, 18 h
Item-by-item account of log10(IC50)
Please note: log10 values; quantity IC50; unit nM.

Data point: CC(c1cc(Cl)cc(C2CC2)n1)N1CCC(COc2cc(F)c(C(=O)NS(=O)(=O)C3CC3)cc2C2CC2)CC1 (centres unmarked) [Example 47] ; log10(IC50) = 1.00

Data point: CS(=O)(=O)NC(=O)c1cc(C2CC2)c(OCC2CCN(Cc3cc(Cl)cc(C(F)(F)F)n3)CC2)cc1F [Example 53] ; log10(IC50) = 0.97

Data point: CCS(=O)(=O)NC(=O)c1cc(C2CC2)c(OCC2(OC)CCN(Cc3cc(Cl)cc(Cl)c3)CC2)cc1F [Example 10] ; log10(IC50) = 0.95

Data point: O=C(NS(=O)(=O)N1CCC1)c1cc(C2CC2)c(O[C@H]2CCCN(Cc3ccc(F)cc3Cl)C2)cc1F [Example 41] ; log10(IC50) = 2.15

Data point: COC1(COc2cc(F)c(C(=O)NS(C)(=O)=O)cc2C2CC2)CCN(Cc2cc(C(F)(F)F)cc(Cl)c2F)CC1 [Example 7] ; log10(IC50) = 0.90
